Attribution: patent US4593090A

- Test system: Leukemia L1210
- assay-text: Activity against Leukemia L1210, intraperitoneal, increase in life span of mice
- Format: in vivo, female mice (BDF1 family)
- condition-description: ip; O.D./ILS30
- Procedure: Tests were conducted in accordance with the method for measuring antitumor activity of National Cancer Center Tokyo (A, Hoshi et al, Farumashia 9 464 (1973)). […] An increase percentage of life span (ILS%) was calculated from said average survival days compared with those of the control group. […]
Classify as follows. Reported Therapeutic ratio TR greater than or equal to 40: y. Reported Therapeutic ratio TR below: n.

INSERT INTO measurements (compound, group) VALUES
  ('C=C(C)CN(C(=O)N(CCCl)N=O)[C@H]1[C@@H](OC(C)CC)O[C@H](CO)[C@@H](O)[C@@H]1O (stereo partly shown)', 'n'),
  ('CC(C)CCN(C(=O)N(CCCl)N=O)[C@H]1[C@@H](O)[C@@H](CO)O[C@H](OCC(C)C)[C@@H]1O', 'n'),
  ('CO[C@H]1O[C@H](CO)[C@@H](O)[C@H](NC(=O)N(CCCl)N=O)[C@H]1O [KCNUM, reference compound]', 'n'),
  ('CC(C)CN(C[C@H]1O[C@H](OC(C)(C)C)[C@H](O)[C@@H](O)[C@@H]1O)C(=O)N(CCCl)N=O', 'y'),
  ('CC(C)CN(C(=O)N(CCCl)N=O)[C@H]1[C@@H](OC2CCCCC2)O[C@H](CO)[C@@H]1O', 'n'),
  ('CCOCCO[C@H]1O[C@H](CN(CC(C)(C)C)C(=O)N(CCCl)N=O)[C@@H](O)[C@H](O)[C@H]1O', 'y');

###

Each record here notes measured LD50 at 720 h.
- assay-text: Acute toxicity (LD50, Behrens-Karber method)
- Format: in vivo, ICR mice
- condition-description: mouse, in vivo, ip, mortality during 30 days
- Experimental: Test compounds, dissolved or suspended in 0.5% aqueous CMC, were each intraperitoneally administered to ICR mice in a dose of 0.1 ml per 10 g body weight. LD50 (mg/kg) value of each test compound was calculated from the mortality of mice during 30 days by the Behrens-Karber method.
metric: LD50 at 720 h (mg/kg)

INSERT INTO results (molecule, unit_annotation, observed) VALUES
  ('CC(C)(C)N(C[C@H]1O[C@H](OCC2CCCO2)[C@H](O)[C@@H](O)[C@@H]1O)C(=O)N(CCCl)N=O (stereo partly shown)', 'mg/kg', 550),
  ('O=NN(CCCl)C(=O)N(CC1CC1)C[C@H]1O[C@H](OC2CCCCC2)[C@H](O)[C@@H](O)[C@@H]1O', 'mg/kg', 435),
  ('COc1ccc(CN(C[C@H]2O[C@H](OC3CCCCC3)[C@H](O)[C@@H](O)[C@@H]2O)C(=O)N(CCCl)N=O)cc1', 'mg/kg', 530),
  ('CC(C)CN(C[C@H]1O[C@@H](OC2CCCCC2)[C@H](O)[C@@H]1O)C(=O)N(CCCl)N=O', 'mg/kg', 550),
  ('COCC(C)N(C(=O)N(CCCl)N=O)C1C(O)C(CO)OC(OC2CCCCC2)C1O (stereo not shown)', 'mg/kg', 720),
  ('CC(C)CO[C@H]1O[C@H](CN(CC2CCCO2)C(=O)N(CCCl)N=O)[C@@H](O)[C@@H](O)[C@@H]1O (stereo partly shown)', 'mg/kg', 540),
  ('CC(C)CCO[C@H]1O[C@H](CN(CC(C)C)C(=O)N(CCCl)N=O)[C@@H](O)[C@H](O)[C@H]1O', 'mg/kg', 450);

###

- Test system: Leukemia L1210
- assay-text: Activity against Leukemia L1210, intraperitoneal, increase in life span of mice
- Format: in vivo, female mice (BDF1 family)
- condition-description: Mus musculus, L1210, ip, ip once a day for 5 successive days; daily dosage giving maximum increase of life span; read-out: O.D. (optimum dosage)
metric: ED (maximum ILS) (mg/kg)

INSERT INTO results (compound, observed) VALUES
  ('CCCCCCO[C@H]1O[C@H](CN(CC(C)C)C(=O)N(CCCl)N=O)[C@@H](O)[C@H](O)[C@H]1O', 140),
  ('Cc1ccc(CN(C[C@H]2O[C@H](OCC(C)C)[C@H](O)[C@@H](O)[C@H]2O)C(=O)N(CCCl)N=O)cc1', 200),
  ('CCC(C)N(C[C@H]1O[C@H](OC2CCCCC2)[C@H](O)[C@@H](O)[C@@H]1O)C(=O)N(CCCl)N=O (some centres unmarked)', 200),
  ('COCCCO[C@@H]1O[C@H](CN(CCCOC)C(=O)N(CCCl)N=O)[C@@H](O)[C@H]1O', 160),
  ('CCCCO[C@H]1O[C@H](CN(C)C(=O)N(CCCl)N=O)[C@H](O)[C@H](O)[C@H]1O', 130),
  ('CC(C)CN(C[C@H]1O[C@@H](OC2CCCCC2)[C@@H](O)[C@@H]1O)C(=O)N(CCCl)N=O', 150),
  ('COCC(C)N(C[C@H]1O[C@H](OCC(C)C)[C@H](O)[C@@H](O)[C@@H]1O)C(=O)N(CCCl)N=O (some centres unmarked)', 190),
  ('CCCCN(C[C@H]1O[C@H](OC)[C@H](O)[C@@H](O)[C@@H]1O)C(=O)N(CCCl)N=O [Compound 6MCαGB, reference compound]', 30),
  ('COCCCO[C@H]1O[C@H](CN(CC(C)(C)C)C(=O)N(CCCl)N=O)[C@@H](O)[C@H](O)[C@H]1O', 160),
  ('O=NN(CCCl)C(=O)N(CC1CC1)C[C@H]1O[C@H](OC2CCCCC2)[C@H](O)[C@@H](O)[C@@H]1O', 150),
  ('CC(C)CN(C(=O)N(CCCl)N=O)[C@@H]1[C@H](OC2CCCCC2)O[C@H](CO)[C@H]1O', 160),
  ('CCC(C)N(C[C@H]1O[C@H](OCCOCOC)[C@H](O)[C@@H](O)[C@H]1O)C(=O)N(CCCl)N=O (some centres unmarked)', 200),
  ('CCOCCN(C(=O)N(CCCl)N=O)C1C(OC2CCCCC2)OC(CO)C(O)C1O (centres unmarked)', 200),
  ('CC(C)CO[C@H]1O[C@H](CO)[C@H](N(CC(C)C)C(=O)N(CCCl)N=O)[C@H](O)[C@H]1O', 200),
  ('COCCN(C[C@H]1O[C@H](OCC(C)C)[C@@H](O)[C@@H](O)[C@@H]1O)C(=O)N(CCCl)N=O', 200),
  ('CCOCCO[C@H]1O[C@H](CN(C(=O)N(CCCl)N=O)C(C)C)[C@H](O)[C@H](O)[C@H]1O', 150),
  ('COCCOCCO[C@H]1O[C@H](CN(C(=O)N(CCCl)N=O)C(C)(C)C)[C@@H](O)[C@H](O)[C@H]1O', 160),
  ('CCCCO[C@H]1O[C@H](CN(CCCC)C(=O)N(CCCl)N=O)[C@@H](O)[C@H](O)[C@H]1O', 120),
  ('CCCCOC1OC(CO)C(O)C(N(CC(C)OC)C(=O)N(CCCl)N=O)C1O (centres unmarked)', 200),
  ('COc1ccc(CN(C[C@H]2O[C@H](OC3CCCCC3)[C@H](O)[C@@H](O)[C@@H]2O)C(=O)N(CCCl)N=O)cc1', 170),
  ('COC(C)CO[C@H]1O[C@H](CN(CC2CC2)C(=O)N(CCCl)N=O)[C@H](O)[C@H](O)[C@H]1O (some centres unmarked)', 150),
  ('CCCCO[C@H]1O[C@H](CN(CCCOC)C(=O)N(CCCl)N=O)[C@@H](O)[C@H](O)[C@H]1O', 150),
  ('CC(C)CO[C@H]1O[C@H](CO)[C@H](O)[C@H](O)[C@H]1N(CC(C)C)C(=O)N(CCCl)N=O', 200),
  ('CCCCN(C[C@H]1O[C@H](OCCCOC)[C@H](O)[C@@H](O)[C@@H]1O)C(=O)N(CCCl)N=O', 150),
  ('C=C(C)CN(C(=O)N(CCCl)N=O)C1C(O)C(CO)OC(OC(C)CC)C1O (centres unmarked)', 220),
  ('COCC(C)OC1OC(CO)C(O)C(O)C1N(CC(C)C)C(=O)N(CCCl)N=O (centres unmarked)', 200),
  ('C=C(C)CN(C(=O)N(CCCl)N=O)[C@H]1[C@@H](OCCCC)O[C@H](CO)[C@@H](O)[C@@H]1O', 170),
  ('CCCCCCN(C[C@H]1O[C@H](OCCCC)[C@H](O)[C@@H](O)[C@@H]1O)C(=O)N(CCCl)N=O', 140),
  ('COCCCO[C@@H]1O[C@H](CN(CC(C)C)C(=O)N(CCCl)N=O)[C@@H](O)[C@H]1O', 160);
